assay: Approximate solubility of starting material at RT; format: physicochemical; settings: organic solvent or mixture; THF; RT (~27 °C)

>  <compound>
O=c1[nH]cnc2c(CN3C[C@H](CO)[C@@H](O)C3)c[nH]c12 [Glutarate Type A]

>  <solubility>
< 2000 µg/mL

$$$$

----------
assay: Approximate solubility of starting material at RT; format: physicochemical; details: organic solvent or mixture; Toluene; RT (~27 °C)

>  <compound>
O=c1[nH]cnc2c(CN3C[C@H](CO)[C@@H](O)C3)c[nH]c12 [Glutarate Type A]

>  <solubility>
< 1900 µg/mL

$$$$

----------
assay: Kinetic solubility (37 °C/24 h); format: physicochemical; details: SGF
parameterMeasured: solubility kinetic at 24 h

>  <compound>
O=c1[nH]cnc2c(CN3C[C@H](CO)[C@@H](O)C3)c[nH]c12 [Glutarate Type A]

>  <assayValue>
> 16.8 mg/mL

$$$$

----------
assay: Approximate solubility of starting material at RT; assay type: physicochemical; conditions: organic solvent or mixture; DCM; RT (~27 °C)
parameterMeasured: solubility

>  <molecule>
O=c1[nH]cnc2c(CN3C[C@H](CO)[C@@H](O)C3)c[nH]c12 [Glutarate Type A]

>  <assayValue>
< 1800 µg/mL

$$$$

----------
Experiment: Approximate solubility of starting material at RT
Format: physicochemical
Details: organic solvent or mixture; MTBE; RT (~27 °C)
Description: The solubility of starting material (E0007-A01-02) was estimated at RT (~27 °C). Specifically, approximate 2 mg of solid was added into an HPLC glass vial. The solvents below were then added stepwise ([…]) into the vials until the solids were dissolved or a total volume of 1.0 mL was reached. The solubility data were used to guide the solvent selection in polymorph screening. Approximate solubility of starting material (E0007-A01-02) at RT: […]
parameterMeasured: solubility

>  <molecule>
O=c1[nH]cnc2c(CN3C[C@H](CO)[C@@H](O)C3)c[nH]c12 [Glutarate Type A]

>  <parameterMeasured>
solubility

>  <assayValue>
< 2000 µg/mL

$$$$

----------
experiment: Physicochemical stability (2-week, open conditions); settings: 10-day; 25 °C/60% RH; read-out: Purity
parameterMeasured: remaining at 240 h (%)

>  <compound>
O=c1[nH]cnc2c(CN3C[C@H](CO)[C@@H](O)C3)c[nH]c12 [Glutarate Type A]

>  <assayValue>
97.7

$$$$

----------
assay: Approximate solubility of starting material at RT; type: physicochemical; conditions: organic solvent or mixture; EtOH; RT (~27 °C)

>  <compound>
O=c1[nH]cnc2c(CN3C[C@H](CO)[C@@H](O)C3)c[nH]c12 [Glutarate Type A]

>  <solubility>
< 2100 µg/mL

$$$$

----------
experiment: Physicochemical stability (2-week, open conditions); conditions: 2-week; 40 °C/75% RH; read-out: Purity
parameterMeasured: remaining at 336 h (%)

>  <compound>
O=c1[nH]cnc2c(CN3C[C@H](CO)[C@@H](O)C3)c[nH]c12 [Glutarate Type A]

>  <parameterMeasured>
remaining at 336 h

>  <assayValue>
97.7

$$$$

----------
test: Approximate solubility of starting material at RT; type: physicochemical; conditions: organic solvent or mixture; EtOH/H2O (9:1); RT (~27 °C)

>  <compound>
O=c1[nH]cnc2c(CN3C[C@H](CO)[C@@H](O)C3)c[nH]c12 [Glutarate Type A]

>  <solubility>
< 2000 µg/mL

$$$$
